Data provenance is PubChem BioAssay.

Tested on: Fibrinogen (Alexa647-labelled)
Assay: fibrinogen binders on compound microarrays, profiling panel, artefact control for SMM control-protein annotation, biochemical, small-molecule microarray, 635/667 nm fluorescence (AID 1131);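 note: z-score merges 667 nm fluorescence with per-spot signal-to-noise over triplicate slides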
Conditions: fibrinogen-A647 binding fluorescence, higher = more signal
Provide the reported composite z-score of each item.
Answers are plain numbers.

Example entries begin here.
molecule | experimental_result
CCOC(=O)C1=CC[C@@H](c2ccccc2)N(S(=O)(=O)c2ccc(C)cc2)[C@H]1C=Cc1ccccc1 | -0.181
[N-]=[N+]=NCc1ccccc1C[C@]1(C(=O)N2CCOCC2)COC(c2ccc(OCCCO)cc2)=N1 | 0.695
C=CCNC(=O)[C@H]1[C@@H]2C(=O)O[C@@H](c3ccccc3)[C@@H](c3ccccc3)N2[C@@H](c2ccc(OCCO)cc2)[C@]12C(=O)Nc1ccc(C#CCNC(N)=O)cc12 | 0.936

// each molecule listed below needs its composite z-score
1. C[C@]1(C(=O)NCC(F)(F)F)c2ccccc2C(=O)N(Cc2ccccc2)[C@H]1c1ccc(CO)cc1
2. COC(=O)[C@@]1(Cc2ccc(F)cc2)[C@H]2c3cc(C(=O)N(C)C)n(Cc4ccc(O)c(OC)c4)c3C[C@H]2CN1C(=O)c1ccccc1
3. COCCOC(=O)N1C(=O)[C@@]2(c3cc(C#CC4=CCCCC4)ccc31)[C@H](c1ccc(O)cc1)N1[C@H](c3ccccc3)[C@H](c3ccccc3)OC(=O)[C@H]1[C@@H]2C(=O)NC[C@H](O)c1ccccc1
4. COc1ccc([Si](C)(C)[C@H]2[C@H](CCO)O[C@@]3(C(=O)N(Cc4ccccc4)c4ccc(N5C(=O)c6ccccc6Oc6ccccc65)cc43)[C@@H]2C)cc1
5. COCCOC(=O)N1C(=O)[C@@]2(c3cc(C#CC4(O)CCCCCC4)ccc31)[C@H](c1ccc(OCCO)cc1)N1[C@H](c3ccccc3)[C@H](c3ccccc3)OC(=O)[C@H]1[C@@H]2C(=O)Nc1nc2ccccc2s1
6. COc1ccc([Si](C)(C)[C@H]2[C@H](CC(=O)N3CCC[C@H]3CO)O[C@@]3(C(=O)N(Cc4ccc(N5CCC5=O)cc4)c4ccccc43)[C@@H]2C)cc1
7. CN(C)CCCCCCNC(=O)[C@@H]1C[C@@H]2C(=O)N[C@@H](CCCCN)C(=O)N2[C@@H]1c1ccc(O)cc1
8. COCCOC(=O)N1C(=O)[C@@]2(c3ccccc31)[C@H](c1ccccc1OCCO)N1[C@H](c3ccccc3)[C@H](c3ccccc3)OC(=O)[C@H]1[C@@H]2C(N)=O

Response:
-1.32
0.977
0.813
-0.0167
0.688
0.898
0.957
0.955

Give composite z-score for each of the items listed below.
1. CN1C(=O)C2C=CC(C(O)c3ccc(I)cc3)N(Nc3ccccc3)C2C1=O (stereo not drawn)
2. C=C(CCCC)C(=O)CC[C@@H](OC(=O)c1cccnc1)c1ccc(OCCO)cc1

Response:
1.02
-0.0496

* * *

Molecular target: Dickkopf-related protein 1 (Homo sapiens) (UniProt O94907)
Sequence (O94907 whole entry, looked up): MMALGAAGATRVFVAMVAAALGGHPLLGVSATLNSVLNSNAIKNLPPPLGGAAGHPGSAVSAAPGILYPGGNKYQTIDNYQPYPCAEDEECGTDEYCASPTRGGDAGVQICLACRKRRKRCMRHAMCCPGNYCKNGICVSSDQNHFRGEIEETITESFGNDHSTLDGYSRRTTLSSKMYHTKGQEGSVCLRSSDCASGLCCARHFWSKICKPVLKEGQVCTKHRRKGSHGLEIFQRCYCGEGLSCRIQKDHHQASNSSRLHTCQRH
Test: DKK1 binders on small-molecule microarrays, primary screen, biochemical, small-molecule microarray, 635 nm fluorescence scan (AID 1106);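 note: score merges emission near 667 nm with signal to noise over three replicate slides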
Conditions: DKK1 binding, higher = more signal
Record Yes whenever composite z-score is at -0.3 or higher; record No when lower.

Solved cases (10 shown):
compound | test_system | label
COCC(=C=CC[C@@H](O)c1ccc(OCCO)cc1)CCO | Dickkopf-related protein 1 (Homo sapiens) (UniProt O94907) | Yes
C=C/C=C/[C@@H]1C(=C)CN([C@@H](Cc2ccccc2)C(=O)OC)[C@H]1[C@@H](O)Cc1ccccc1 | Dickkopf-related protein 1 (Homo sapiens) (UniProt O94907) | Yes
CN1C=C(C(=O)OCCS(C)(=O)=O)C(C(=O)OCCS(C)(=O)=O)=CC(c2ccc(CO)cc2)=CC1c1cccs1 (configuration not stated) | Dickkopf-related protein 1 (Homo sapiens) (UniProt O94907) | Yes
C=CCOC(=O)[C@H]1[C@@H]2C(=O)O[C@@H](c3ccccc3)[C@@H](c3ccccc3)N2[C@@H](c2ccc(OCCOC(=O)[C@H]3C[C@H]4C(=O)N[C@@H](CCCCNC(C)=O)C(=O)N4[C@H]3c3cccc(OCCO)c3)cc2)[C@]12C(=O)Nc1ccc(I)cc12 | Dickkopf-related protein 1 (Homo sapiens) (UniProt O94907) | Yes
CCCNC(=O)[C@@]1(Sc2ccc(C)cc2)CC(=O)N(C(C)C)[C@@H]1c1ccc(CO)cc1I | Dickkopf-related protein 1 (Homo sapiens) (UniProt O94907) | No
COC(=O)[C@@]1(Cc2ccc(F)cc2)[C@H]2c3cc(C(=O)N(C)C)n(Cc4ccc(O)c(OC)c4)c3C[C@H]2CN1C(=O)c1ccccc1 | Dickkopf-related protein 1 (Homo sapiens) (UniProt O94907) | Yes
COCC1C2CC[C@H]3C(OCc4ccc(OC)cc4)OC[C@]4(C)[C@H]3C2=C(CN4C(=O)OC(C)(C)C)[C@H](C)C1COC (some centres not stated) | Dickkopf-related protein 1 (Homo sapiens) (UniProt O94907) | Yes
CN1C(=O)C2C(C1=O)C1C=C(CCCO)C2C(C2CC2)N1Cc1cc2c(cc1Br)OCO2 (configuration not stated) | Dickkopf-related protein 1 (Homo sapiens) (UniProt O94907) | Yes
Cc1ccccc1C(O)C1C=CC2C(=O)NC(=O)C2N1Nc1ccc(Cl)cc1Cl (configuration not stated) | Dickkopf-related protein 1 (Homo sapiens) (UniProt O94907) | Yes
COC(=O)C(CC#Cc1ccc2c(c1)[C@]1(C(=O)N2)[C@H](c2ccc(O)cc2)N2[C@H](c3ccccc3)[C@H](c3ccccc3)OC(=O)[C@H]2[C@@H]1C(=O)N1CCCCCCC1)C(=O)OC | Dickkopf-related protein 1 (Homo sapiens) (UniProt O94907) | Yes

Prompt: Please indicate if the recorded composite z-score for O=C1O[C@H](c2ccccc2)[C@H](c2ccccc2)N2[C@H]1[C@@H](C(=O)Nc1nc3ccccc3s1)[C@]1(C(=O)Nc3ccc(C#CC4=CCCCC4)cc31)[C@H]2c1ccc(O)cc1 meets or exceeds -0.3.
Response: Yes

Prompt: Say whether COc1ccc([Si](C)(C)[C@@H]2[C@@H](CCn3cc([C@H](O)c4ccccc4)nn3)O[C@]3(C(=O)N(Cc4cccc(N5C(=O)c6cccc7cccc5c67)c4)c4ccccc43)[C@H]2C)cc1 shows composite z-score of -0.3 or more.
Response: No

* * *

Give z-score for every item shown.
Assay: A549 lung cancer cell viability effects, profiling panel, resazurin fluorescence, 24 h, PK04 Diversity Set (AID 1171); note: test concentration not given here
Conditions: higher = more signal, called active from +8 up or from −8 down
Numbers only.

// worked examples, z-score included
compound | readout | experimental_result
C=CC1c2cc(O)c(OC)cc2CCN1Cc1ccc([N+](=O)[O-])o1 (stereo not drawn) | z-score | 0.0283
COCCOC(=O)N1C(=O)[C@@]2(c3cc(C#CCC(C(=O)OC)C(=O)OC)ccc31)[C@H](C(=O)NC[C@H](O)c1ccccc1)[C@H]1C(=O)O[C@H](c3ccccc3)[C@H](c3ccccc3)N1[C@@H]2c1ccc(O)cc1 | z-score | -0.227

Continue with the compound presented below.
// z-score value for COCCOC(=O)N1C(=O)[C@@]2(c3cc(C#CC4(O)CCCCCC4)ccc31)[C@H](c1ccc(OCCO)cc1)N1[C@H](c3ccccc3)[C@H](c3ccccc3)OC(=O)[C@H]1[C@@H]2C(=O)Nc1nc2ccccc2s1 : 0.813

* * *

System: Sam68 (KHDRBS1)
Assay: Sam68 small-molecule binders, primary screen, biochemical, small-molecule microarray, 635 nm fluorescence (AID 1125);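 note: score merges 667 nm channel intensity with signal to noise over triplicate slides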
Conditions: small-molecule microarray binding, higher = more signal
Record form. Attribute: composite z-score. Fill in for each entry.
Give bare numbers.

record_smiles | test_system | composite z-score
NC(=O)NCC#Cc1ccc2c(c1)[C@]1(C(=O)N2)[C@H](C(=O)N2CCN(c3ncccn3)CC2)[C@H]2C(=O)O[C@H](c3ccccc3)[C@H](c3ccccc3)N2[C@@H]1c1ccc(OCCO)cc1 | Sam68 (KHDRBS1) | 0.982
COc1ccc(C#Cc2ccc3c(c2)[C@]2(C(=O)N3)[C@H](C(=O)Nc3nc4ccccc4s3)[C@H]3C(=O)O[C@H](c4ccccc4)[C@H](c4ccccc4)N3[C@@H]2c2ccccc2OCCO)cc1 | Sam68 (KHDRBS1) | 1.25

Here is the next item to consider.
Quick note, composite z-score for COc1ccc(C#Cc2ccc3c(c2)[C@]2(C(=O)N3)[C@H](C(=O)N3CCCCCCC3)[C@H]3C(=O)O[C@H](c4ccccc4)[C@H](c4ccccc4)N3[C@@H]2c2ccc(O)cc2)cc1 landed at 1.3

* * *

Can you tell me composite z-score for the items I'm about to list?
Target: Torsin-1A-interacting protein 1 (Homo sapiens)
Experiment: LAP1 binders from COS7 cell lysate, primary screen, small-molecule microarray, 635/667 nm fluorescence (AID 1116)
Settings: COS7-hLAP1 lysate binding, 635 nm fluorescence, higher = more signal
Answers are plain numbers.

compound | composite z-score
COc1ccc([Si](C)(C)[C@@H]2[C@@H](CC(=O)N3Cc4ccccc4C[C@H]3CO)O[C@]3(C(=O)N(c4ccccc4)c4ccccc43)[C@H]2C)cc1 | 0.553
O=C(N1CCOCC1)[C@@]1(CCS(=O)(=O)c2ccccc2)N=C(c2ccc(OCCCO)cc2)O[C@H]1c1ccccc1 | 1.85

Please examine the following record next.
// composite z-score lookup, compound = C=CCC(OC(C)=O)[C@@H]1[C@@H](N(Cc2cccc3ccccc23)C(=O)c2ccc(-c3ccccc3)cc2)c2cc(OCCCO)ccc2N1C(=O)c1ccc(-c2ccccc2)cc1 (stereo partly drawn) , result: 0.35
